# Test system: RXF 393 renal
# assay-info: NCI tumour cell line growth inhibition, 48 h
# TGI per entry

Inquiry: Quick check: TGI of CN1C(=O)CC2(C)c3cc(O)cc(Br)c3N(C)C12 (stereo unspecified) ?
Reply text: > 100 µM

Inquiry: Quick check: TGI of COc1ccc2c(c1)CC[C@@H]1C2CC[C@]2(C)C(=O)N(CCN(C)C)C(=O)CC12 (stereo partly specified) ?
Reply text: > 100 µM

###

# System: K-562 leukemia
# assay-info: NCI tumour cell line growth inhibition, 48 h
observed-property: TGI

CN(C)C(=O)Oc1c(Br)cc(Br)cc1C(=O)OCc1ccccc1	> 90.2 µM

Inquiry: Missing value: TGI, K-562 leukemia, entry O=P(O)(O)c1ccc(-c2ccc(I)cc2)cc1 . Fill in?
Reply text: > 100 µM

Inquiry: Missing value: TGI, K-562 leukemia, entry CCC(=O)Nc1cccc(N=Cc2ccc(OC(=O)/C=C\c3ccccc3)cc2)c1 . Fill in?
Reply text: > 75 µM

Inquiry: Missing value: TGI, K-562 leukemia, entry C/C(CCn1[nH]c(=O)ccc1=O)=N\NC(=O)C(N)=O . Fill in?
Reply text: > 100 µM

Inquiry: Missing value: TGI, K-562 leukemia, entry COc1ccc2c(c1)Oc1cc(O)ccc1[C@H]2c1ccccc1C(=O)NC(C)c1ccccc1 (stereo partly specified) . Fill in?
Reply text: > 100 µM

Inquiry: Missing value: TGI, K-562 leukemia, entry COC1=C[C@]2(CCC(=O)O2)[C@@H]2Cc3ccccc3[C@H](O)[C@@H]2C1=O . Fill in?
Reply text: > 100 µM

Inquiry: Missing value: TGI, K-562 leukemia, entry COc1cc2c(NCCCCCO)ncnc2c(OC)c1OC . Fill in?
Reply text: > 100 µM

Inquiry: Missing value: TGI, K-562 leukemia, entry CC1=NN(C(=O)Cc2ccccc2)C(=O)/C1=C\c1ccc([N+](=O)[O-])cc1 . Fill in?
Reply text: > 100 µM

Inquiry: Missing value: TGI, K-562 leukemia, entry Cc1cc2nc3c(C#N)c4c(c(Nc5ccc(F)cc5)n3c2cc1C)CCC4 . Fill in?
Reply text: > 100 µM

Inquiry: Missing value: TGI, K-562 leukemia, entry O=c1c2c3c(sc2nc2n1N=CN(c1ccccc1)C2)CCCC3 . Fill in?
Reply text: > 100 µM

Inquiry: Missing value: TGI, K-562 leukemia, entry O=C(NC(=Nc1ccccc1)SCSC(=Nc1ccccc1)NC(=O)c1ccco1)c1ccco1 . Fill in?
Reply text: > 100 µM

###

# TGI per entry
# Test system: MDA-MB-435
# assay-info: NCI tumour cell line growth inhibition, 48 h

CC(=O)OCC12CN(C#N)C3C4COC(CC41)C1(C(=O)N(C)c4ccccc41)C32 (stereo unspecified)	> 100 µM
Cc1nn(C(=O)c2ccccc2O)c2c1C(c1ccc(O)cc1O)SC(N)=N2 (stereo unspecified)	> 10 µM

Inquiry: Quick check: TGI of Cc1ccccc1C1=C(c2cn(C)c3ccccc23)C(=O)NC1=O ?
Reply text: > 25 µM

Inquiry: Quick check: TGI of COc1cc2c3c(n(CCCN(CCCN(CCCn4c5c(c6ccccc6c4=O)C(=O)c4ccccc4-5)C(=O)OC(C)(C)C)C(=O)OC(C)(C)C)c(=O)c2cc1OC)-c1cc2c(cc1C3=O)OCO2 ?
Reply text: > 100 µM

Inquiry: Quick check: TGI of CC(=O)OCC1OC(N2C(=O)NC(=O)C3C=C4CCCCC4=CC32)CC1OC(C)=O (stereo unspecified) ?
Reply text: > 100 µM

Inquiry: Quick check: TGI of COc1ccc2c(c1)CC[C@@H]1C2CC[C@]2(C)C(=O)N(CCN(C)C)C(=O)CC12 (stereo partly specified) ?
Reply text: > 100 µM

Inquiry: Quick check: TGI of COC(=O)c1cc(NC(=O)c2cc(NC(=O)c3cc([N+](=O)[O-])n(C)c3)cn2C)cn1C ?
Reply text: > 100 µM
